- Test system: Caco-2
- Assay info: drug sensitivity score (DSS) for viability; higher = more toxic; extreme values may be limits of the assay
- Experimental conditions: 72 h
Measured drug sensitivity score, listed per entry.
Please respond with just the number, no unit label.

See these solved cases before continuing.
Which measured drug sensitivity score value corresponds to "c1ccc2c(c1)OC[C@H](CNCCCOc1ccc3c(c1)OCO3)O2" ?
0

Query "N[C@@H]1CCN(c2cccnc2)C1" next
0

Entry "N#Cc1cccc(-c2nc(-c3cccnc3)no2)c1" please
0

Please give the result for "O=C(NCc1ccc2c(c1)OCO2)c1c(Cl)cccc1Cl" too.
0

Follow-up item: CN1CCc2cc3c(cc2[C@H]1[C@@H]1OC(=O)c2c1ccc1c2OCO1)OCO3 [bicuculline-(+)]
0

For CCOC(=O)NNc1ccc(N(CC)CC(C)O)nn1 (centres undefined) then?
0

Could you do the same for "CCCN1CCN(c2ccc(C(=O)NC3(C(=O)NCC#N)CCCCC3)cc2)CC1" , please?
0

Queued: C=CC(N)CCC(=O)O (centres undefined)
0

Others:
// query drug sensitivity score value for entry "COC1=C2C[C@@H](C)C[C@H](OC)[C@H](O)[C@@H](C)/C=C(\C)[C@H](OC(N)=O)[C@@H](OC)/C=C\C=C(/C)C(=O)NC(=CC1=O)C2=O"
9.2

Moving on to N#CC(Cc1ccc(O)cc1)c1ccc(O)cc1 (centres undefined)
0

Check "CO[C@H]1CC[C@H](N2C(=O)CNc3ncc(-c4ccc(C(C)(C)O)nc4)nc32)CC1" too.
5.8

Further, for "O=C(CN1CCN(C(=O)c2ccco2)CC1)Nc1cc(C(F)(F)F)ccc1Cl" ?
0

Another: "CCOC(=O)c1ncc2[nH]c3cccc(OC(C)C)c3c2c1C"
0.8

# iterate: "c1ccc(-c2cnn3cc(-c4ccc(OCCN5CCOCC5)cc4)cnc23)cc1"
1.6

Would you mind doing "O=C(NCCN1CCN(c2ncccn2)CC1)C12CC3CC(CC(C3)C1)C2" as well?
0

Same read-out for "Cc1nnsc1C(=O)Nc1ccc(-n2nc(C(F)(F)F)cc2C(F)(F)F)cc1" ?
0.2

====

- Test system: Calu-3
- Assay info: cell viability relative to DMSO; higher = less toxic
- Experimental conditions: 72 h; 10 nM
Measured property: cell viability (%)
Record the value in %, omitting the unit from your answer.

Illustrative cases are given below, each with its answer.
Endpoint output: cell viability of "O=C1C2CCN(CC2)C1(CO)CO" . Value?
99

Field entry: "O=C(O)c1cc2cccc([N+](=O)[O-])c2[nH]1"
101

Entry "CCOc1ccc(Cc2cc([C@]34OC[C@](CO)(O3)[C@@H](O)[C@H](O)[C@H]4O)ccc2Cl)cc1" please
99.1

Similarly, "COc1ccccc1NC(=O)OCC1CCN(C(=O)OC(C)(C)C)CC1" ?
102

With those in mind, consider the next molecule.
// cell viability lookup, key: "CC(C)NCCCn1c(Sc2cc3c(cc2I)OCO3)nc2c(N)ncnc21"
107

====

- Test system: U2OS
- Assay info: cell viability relative to DMSO; higher = less toxic
- Experimental conditions: 72 h; 1000 nM
Measured property: cell viability
Please state the number and follow it with the unit.

Suppose we examine the compound "O/N=C/c1ccc(-c2ccc(O)c(F)c2)c(Cl)c1O" ; what cell viability value has been reported?
96.9%

Would you mind doing CCC(=O)O[C@]1(C(=O)COC(C)=O)CC[C@H]2[C@@H]3C[C@H](C)C4=CC(=O)C=C[C@]4(C)[C@H]3[C@@H](O)C[C@@]21C [methylprednisolone-aceponate] as well?
96.9%

Same for "OCCCNc1ccccc1"
102%

Attention now turns to another entry.
Requested read-out: cell viability. Entry: "CC(C)C[C@@H](C=O)NC(=O)[C@H](CC(C)C)NC(=O)[C@H](CC(C)C)NC(=O)OCc1ccccc1"
9.3%
